List of log10(IC50) values.
# system: human Nav1.7 (Homo sapiens (Human))
# Sequence (Q15858 other isoform, or with tags, fused parts or gaps): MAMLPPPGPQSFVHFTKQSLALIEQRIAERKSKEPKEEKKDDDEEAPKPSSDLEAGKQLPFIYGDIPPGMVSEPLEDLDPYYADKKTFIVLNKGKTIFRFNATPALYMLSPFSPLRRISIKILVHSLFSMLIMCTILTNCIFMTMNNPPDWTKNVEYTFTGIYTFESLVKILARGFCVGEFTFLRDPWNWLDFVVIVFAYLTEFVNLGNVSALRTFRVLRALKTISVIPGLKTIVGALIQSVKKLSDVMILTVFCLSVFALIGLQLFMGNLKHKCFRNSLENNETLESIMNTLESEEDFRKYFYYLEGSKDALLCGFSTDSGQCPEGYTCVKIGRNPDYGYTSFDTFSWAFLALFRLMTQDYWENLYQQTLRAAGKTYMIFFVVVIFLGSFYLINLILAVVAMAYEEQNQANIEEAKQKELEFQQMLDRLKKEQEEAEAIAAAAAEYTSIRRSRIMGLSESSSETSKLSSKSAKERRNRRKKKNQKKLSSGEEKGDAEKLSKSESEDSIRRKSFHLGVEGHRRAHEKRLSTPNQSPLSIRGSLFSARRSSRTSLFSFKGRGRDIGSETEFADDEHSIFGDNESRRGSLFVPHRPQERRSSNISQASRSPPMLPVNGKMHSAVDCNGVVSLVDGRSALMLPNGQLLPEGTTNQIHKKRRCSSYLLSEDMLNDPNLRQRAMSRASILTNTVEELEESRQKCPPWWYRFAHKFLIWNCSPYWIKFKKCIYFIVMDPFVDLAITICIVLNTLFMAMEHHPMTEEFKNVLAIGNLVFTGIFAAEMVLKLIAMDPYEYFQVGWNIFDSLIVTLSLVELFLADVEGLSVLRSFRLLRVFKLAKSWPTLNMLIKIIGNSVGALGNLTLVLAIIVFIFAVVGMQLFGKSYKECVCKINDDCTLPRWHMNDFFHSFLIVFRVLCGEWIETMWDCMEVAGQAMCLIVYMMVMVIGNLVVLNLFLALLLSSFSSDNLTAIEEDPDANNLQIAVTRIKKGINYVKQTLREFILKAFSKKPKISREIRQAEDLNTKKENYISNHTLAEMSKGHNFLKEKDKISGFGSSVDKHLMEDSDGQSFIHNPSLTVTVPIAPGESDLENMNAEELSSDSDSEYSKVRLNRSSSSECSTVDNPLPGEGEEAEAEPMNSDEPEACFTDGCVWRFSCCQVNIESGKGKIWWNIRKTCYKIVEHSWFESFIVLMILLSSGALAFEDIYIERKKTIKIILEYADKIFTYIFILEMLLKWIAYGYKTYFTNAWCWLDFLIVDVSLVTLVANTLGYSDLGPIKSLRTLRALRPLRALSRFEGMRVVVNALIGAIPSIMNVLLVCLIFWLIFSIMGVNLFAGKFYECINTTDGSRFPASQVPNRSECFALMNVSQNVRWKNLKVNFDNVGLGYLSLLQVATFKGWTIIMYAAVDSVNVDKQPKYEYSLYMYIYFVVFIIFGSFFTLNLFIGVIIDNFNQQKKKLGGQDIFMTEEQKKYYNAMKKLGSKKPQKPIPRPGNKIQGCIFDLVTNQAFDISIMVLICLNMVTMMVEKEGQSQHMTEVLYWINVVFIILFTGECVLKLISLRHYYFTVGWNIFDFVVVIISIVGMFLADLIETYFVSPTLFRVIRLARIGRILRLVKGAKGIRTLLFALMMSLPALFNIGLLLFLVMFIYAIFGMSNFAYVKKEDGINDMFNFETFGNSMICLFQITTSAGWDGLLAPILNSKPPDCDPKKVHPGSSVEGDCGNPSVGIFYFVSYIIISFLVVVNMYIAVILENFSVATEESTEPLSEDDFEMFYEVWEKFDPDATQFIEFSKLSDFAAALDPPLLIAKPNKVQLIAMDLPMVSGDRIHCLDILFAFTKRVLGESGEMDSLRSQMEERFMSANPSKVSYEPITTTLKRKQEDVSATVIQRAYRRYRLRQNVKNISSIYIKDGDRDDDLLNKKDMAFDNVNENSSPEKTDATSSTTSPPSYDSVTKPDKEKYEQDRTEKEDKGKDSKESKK
# protocol notes: FLIPR sodium dye assay (CoroNa Green AM Na+ dye, primary fluorescence assay)
# Type: cell-based
# applied conditions: recombinant Nav1.7/HEK293 cells
experimental endpoint: log10(IC50) (log10 of the value in µM)

- CN1CCN(Cc2cc(C(F)(F)F)ccc2Oc2ccc(-c3cccc(C(N)=O)n3)cc2)CC1 [compound 33]: -0.66
- CCN(CC)Cc1cc(C(F)(F)F)ccc1Oc1ccc(-c2cccc(C(N)=O)n2)cc1 [compound 118]: -0.93
- Cn1cc(-c2cc(C#N)ccc2Oc2ccc(-c3cccc(C(N)=O)n3)cc2)cn1 [compound 21]: -0.25
- NC(=O)c1cccc(-c2ccc(Oc3ccc(C(F)(F)F)cc3C(O)C[N+](=O)[O-])cc2)n1 (centres unmarked) [compound 63]: -0.47
- NC(=O)c1cccc(-c2ccc(Oc3ccc(C(F)(F)F)c(CN4CCCC4)c3)cc2)n1 [compound 56]: -0.76
- NC(=O)c1cccc(-c2ccc(Oc3ccc(C(F)(F)F)cc3C(C(N)=O)N3CCCC3)cc2)n1 (centres unmarked) [compound 81]: -0.15
- NC(=O)c1cccc(-c2ccc(Oc3ccc(C(F)(F)F)c(CN4CC[C@H](O)C4)c3)cc2)n1 [compound 54]: -0.44
- N#Cc1ccc(OCc2cc(-c3cccc(C(N)=O)n3)ccc2Oc2ccc(F)cc2)cc1 [compound 105]: -0.44
- N#Cc1ccc(Oc2ccc(-c3cccc(C(N)=O)n3)cc2)c(-c2cccnc2)c1 [compound 16]: -0.98
- NC(=O)c1cccc(-c2ccc(Oc3ccc(C(F)(F)F)cc3CNC3CCNC3)cc2)n1 (centres unmarked) [compound 61]: 0.31
- COC(=O)c1cccc(-c2ccc(Oc3ccc(C(F)(F)F)cc3C(O)C#N)cc2)n1 (centres unmarked) [compound 144]: 0.58
- NC(=O)c1cccc(-c2ccc(Oc3ccc(C(F)(F)F)cc3CNc3nccs3)cc2)n1 [compound 114]: 0.30
- CC(C)(C)OC(=O)NC1CCN(Cc2cc(C(F)(F)F)ccc2Oc2ccc(-c3cccc(C(N)=O)n3)cc2)C1 (centres unmarked) [compound 47]: -0.02
- CCCNC(C(N)=O)c1cc(C(F)(F)F)ccc1Oc1ccc(-c2cccc(C(N)=O)n2)cc1 (centres unmarked) [compound 83]: 0.78
- NC(=O)c1cccc(-c2ccc(Oc3ccc(C(F)(F)F)c(CN4CC(N)C4)c3)cc2)n1 [compound 62]: -0.51
- NC(=O)c1cccc(-c2ccc(Oc3ccc(C(F)(F)F)cc3C(=O)N3CCCC3)cc2)n1 [compound 160]: 0.45
- N#CC(N)c1cc(C(F)(F)F)ccc1Oc1ccc(-c2cccc(C(N)=O)n2)cc1 (centres unmarked) [compound 145]: 0.52
- Cn1cccc1-c1cc(C#N)ccc1Oc1ccc(-c2cccc(C(N)=O)n2)cc1 [compound 17]: -1.17
- COc1ccc(-c2cc(C#N)ccc2Oc2ccc(-c3cccc(C(N)=O)n3)cc2)cn1 [compound 20]: -0.91
- NC(=O)c1cccc(-c2ccc(Oc3ccc(F)cc3)cc2Cl)n1 [compound 86]: -0.31
- OC[C@@H](O)c1ccnc(-c2ccc(Oc3ccc(C(F)(F)F)cc3CN3CCCC3)cc2)n1 [compound 116]: -0.20
- NC(=O)c1cccc(-c2ccc(Oc3ccc(C(F)(F)F)cc3CN3CCCC(C(N)=O)C3)cc2)n1 (centres unmarked) [compound 121]: -0.15
- NC(=O)c1cccc(-c2ccc(Oc3ccc(C(F)(F)F)cc3CN[C@H]3CCNC3=O)cc2)n1 [compound 46]: 0.41
- NC(=O)c1cccc(-c2ccc(Oc3ccc(C(F)(F)F)cc3CN3CC[C@H](O)C3)cc2)n1 [compound 36]: -0.36
- NC(=O)c1cccc(-c2ccc(Oc3ccc(C(F)(F)F)cc3CN3CCC3)cc2)n1 [compound 50]: -0.11
